test.system: CLDN3/4 endogenously expressed on LS513 and MCF7 cells
procedure.summary: FACS dose curve, labelled mAb, MCF7 cells
value.type: pEC50
Scale note: pEC50 = -log10(concentration in M).

Below: 3 binders and their reported pEC50.
AB1 (antibody, V domains shown) VH: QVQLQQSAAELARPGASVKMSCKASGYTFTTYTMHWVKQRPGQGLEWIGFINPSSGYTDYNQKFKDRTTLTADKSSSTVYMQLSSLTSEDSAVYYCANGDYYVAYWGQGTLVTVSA VL: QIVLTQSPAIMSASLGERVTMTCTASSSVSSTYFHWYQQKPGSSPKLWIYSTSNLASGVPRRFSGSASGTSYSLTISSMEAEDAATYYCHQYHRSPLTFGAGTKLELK | 5.30
AB19 (antibody, V domains shown) VH: EVQLQQSGPELVKPGGSMKISCKASGYSFTGYTMNWVKRSHGKNLEWIGLINPYNGVTTYNQNFKGKATLAVDKSSSTAYMELLGLTSEDSAVYYCTRDPLYYGYRDSTMDYWGQGTSVTVSS VL: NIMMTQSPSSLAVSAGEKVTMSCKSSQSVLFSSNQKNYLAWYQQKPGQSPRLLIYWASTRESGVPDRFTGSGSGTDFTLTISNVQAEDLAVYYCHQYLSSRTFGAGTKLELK | 5.30
AB7 (antibody, V domains shown) VH: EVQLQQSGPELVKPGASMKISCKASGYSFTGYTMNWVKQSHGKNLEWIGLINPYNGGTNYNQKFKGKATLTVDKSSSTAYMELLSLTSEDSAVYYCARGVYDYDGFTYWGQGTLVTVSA VL: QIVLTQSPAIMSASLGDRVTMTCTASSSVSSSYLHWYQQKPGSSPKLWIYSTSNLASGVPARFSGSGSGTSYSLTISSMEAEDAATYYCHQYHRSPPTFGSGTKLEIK | 6.01

// next entry
Can you look up the measured pEC50 of AB18 (antibody, V domains shown) VH: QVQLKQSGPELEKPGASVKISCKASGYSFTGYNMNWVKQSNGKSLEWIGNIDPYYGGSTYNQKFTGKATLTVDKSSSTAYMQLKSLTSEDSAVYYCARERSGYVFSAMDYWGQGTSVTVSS VL: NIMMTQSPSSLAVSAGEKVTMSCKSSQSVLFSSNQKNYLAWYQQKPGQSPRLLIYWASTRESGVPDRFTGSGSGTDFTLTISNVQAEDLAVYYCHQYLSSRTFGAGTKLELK for me?
5.30
